- System: A549-CANX-COX4
- test name: phenotypically active (imaging signature differs from DMSO and reproducible) at any of 0.3-9 uM (binary (1 = active, 0 = inactive)); higher = active
- run conditions: treatment time: 24 h
Counter-ions that a name gives are not always drawn.
readout kind: phenotypically active
Give bare numbers.

Take a look at these entries with their results.
CCOC(=O)C1=C[C@]2(CC)CCCN3CCc4c(n1c1ccccc41)[C@@H]32 : 0
Oc1cc(O)cc(/C=C/c2ccc(O)c(O)c2)c1 : 0
Cc1[nH]c(=O)c(C#N)cc1-c1ccncc1 : 0

Hi, could you look up phenotypically active for each item in my list?
1. CCCCC(=O)N(Cc1ccc(-c2ccccc2-c2nnn[nH]2)cc1)[C@H](C(=O)O)C(C)C
2. CN(C)CC/C=C1\c2ccccc2COc2ccc(CC(=O)O)cc21
3. O=C1CCc2c(ccc3ccccc23)O1
4. CC(CCc1ccccc1)NCC(O)c1ccc(O)c(C(N)=O)c1 (stereo not given)
5. CN1c2ccc([N+](=O)[O-])cc2N=C(c2ccc(C(=O)O)cc2)c2cc3c(cc21)C(C)(C)CCC3(C)C
6. CNC(=O)Nc1ccc(-c2nc(N3CC4CCC(C3)O4)c3cnn(C4CCC5(CC4)OCCO5)c3n2)cc1
7. NC(=O)N1c2ccccc2C=Cc2ccccc21 [carbamazepine]
8. O=C(O)c1cc(/N=N/c2ccc(O)c(C(=O)O)c2)ccc1O

A)
[0, 0, 0, 0, 0, 1, 0, 0]

Please state, for each entry, its recorded phenotypically active.
1. Cc1nc[nH]c1C1CCN(c2nc3cccc4c3n2CCC4=O)CC1
2. C[C@@H](CN1CCC(n2c(=O)[nH]c3cc(Cl)ccc32)CC1)NC(=O)c1ccc2ccccc2c1

A)
[0, 1]

List reported phenotypically active for each of these molecules:
1. Cc1cccc(CCN2CCC(C(=O)c3ccc(NS(C)(=O)=O)cc3)CC2)n1
2. COc1cc(/C=C/c2ccc(OC)cc2OC)cc(OC)c1
3. CC1(C(=O)O)CCC2(C)CCC3(C)C(=CC(=O)C4C5(C)CCC(OC6OC(C(=O)O)C(O)C(O)C6OC6OC(C(=O)O)C(O)C(O)C6O)C(C)(C)C5CCC43C)C2C1 (stereo not given)
4. CCCC1(CCC)CCC2(CCN(CCCN(CC)CC)C2)CC1 [Atiprimod dihydrochloride]
5. COc1cccc(-c2cc(F)ccc2[C@H]2Cc3nc(N)nc(C)c3C(=O)N2)n1
6. O=C1CC(c2ccc(O)cc2)Oc2cc(O)cc(O)c21 (stereo not given)

A)
0
1
0
1
1
0

Q) Query: phenotypically active; subject: `OCC(CO)N[C@H]1C[C@](O)(CO)[C@@H](O)[C@H](O)[C@H]1O`
A) 0

* * *

- Tested on: HepG2-TUBA1B-RELA
- test name: phenotypically active (imaging signature differs from DMSO and reproducible) at any of 0.3-9 uM (binary (1 = active, 0 = inactive)); higher = active
- run conditions: treatment time: 24 h
The categories you may choose from are true (1) for active, false (0) for inactive

# example entries with known answers
C=CC(=O)Nc1cccc(Nc2nc(Nc3ccc(OCCOC)cc3)ncc2F)c1 : true (1)
COc1cc2ncnc(Nc3ccc(Cl)cc3F)c2cc1OC : false (0)
Cc1c(CN2CCN(C(=O)[C@H](C)O)CC2)sc2c(N3CCOCC3)nc(-c3cnc(N)nc3)nc12 : true (1)
CC(C)CNc1nc(-c2cccc3ncccc23)cn2c(-c3ccc(C(=O)NC4CC4)cc3)cnc12 : true (1)
O=S(c1ccccc1)c1ccc2nnnn2n1 (stereo unspecified) : false (0)

Okay, next one:
Q) Give the logged outcome of this assay for the following compound: `N#Cc1ccc(C(c2ccc(C#N)cc2)n2cncn2)cc1`
A) false (0)
